# experimental system: T1, HER2-ECD (human, UniProt P04626 23-652)
# T1 construct: extracellular domain
# method description: direct phage ELISA, proteins coated at 2 µg/ml, phage-Fab supernatant, OD450;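 also: specificity test of dual-activity clones, with binding assessed across an antigen panel to check whether each recognises only its cognate target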

{"binder": "D1.5 (phage-displayed Fab clone) (Fab, V domains shown) VH: EVQLVESGGGLVQPGGSLRLSCAASGFTFTGNWIHWVRQAPGKGLEWVGEISPSGGYTDYADSVKGRFTISADTSKNTAYLQMNSLRAEDTAVYYCARESRVSYEAAMDYWGQGTLVTVSS VL: DIQMTQSPSSLSASVGDRVTITCRASQDVSTAVAWYQQKPGKAPKLLIYSASFLYSGVPSRFSGSGSGTDFTLTISSLQPEDFATYYCQQSYPTPYTFGQGTKVEIKR", "binding result": "no binding"}
{"binder": "D1.5-116 (phage-displayed Fab clone) (Fab, V domains shown, EGFR/HER3 clone) VH: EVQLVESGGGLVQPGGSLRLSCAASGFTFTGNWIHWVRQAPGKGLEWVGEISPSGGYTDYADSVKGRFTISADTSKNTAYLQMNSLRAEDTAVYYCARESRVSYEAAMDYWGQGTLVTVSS VL: DIQMTQSPSSLSASVGDRVTITCRASQAIASDVAWYQQKPGKAPKLLIYSASFLYSGVPSRFSGSGSGTDFTLTISSLQPEDFATYYCQQSEPEPYTFGQGTKVEIKR", "binding result": "no binding"}
{"binder": "D1.5-201 (phage-displayed Fab clone) (Fab, V domains shown, EGFR/HER2 dual-specific clone from the D1.5 light chain library) VH: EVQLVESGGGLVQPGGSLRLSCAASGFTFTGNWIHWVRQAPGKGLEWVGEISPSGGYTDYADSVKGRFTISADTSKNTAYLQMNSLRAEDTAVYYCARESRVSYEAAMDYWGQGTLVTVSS VL: DIQMTQSPSSLSASVGDRVTITCRASQAVWGGYIAPVAWYQQKPGKAPKLLIYDGSYLYSGVPSRFSGSGSGTDFTLTISSLQPEDFATYYCQQRLPTPYTFGQGTKVEIKR", "binding result": "binds"}
